Entries and their AUC
- ASSAY EXPLANATION: IV and PO pharmacokinetic studies of prodrug salts (Iab, Ibb, Icb) in the rat, with historical parent data
- Type: in vivo, Sprague-Dawley rats
- CONDITION NOTES: male, Sprague-Dawley, plasma, after IV prodrug (~1 mg/kg parent equivalent), analyte = label, read-out: AUCtot (μM·hr), IV
- Method: All blood samples (0.3 mL) were colleted in microtainers containing K2EDTA (Becton Dickinson, Franklin Lakes, N.J.) and placed on chipped ice. After centrifugation, plasma was separated and stored at −20° C. until analysis. […] The pharmacokinetic parameters of Iab and IVa were calculated by Non-Compartmental Analysis using the […]™ software program (version 4.0.2, InnaPhase Co., Philadelphia, Pa.). The Cmax and Tmax values were recorded directly from experimental observations. […]
State just the number; it will be interpreted in µM·h.

*Q* Give me measured AUC, please, for this compound: COc1ncc(OC)c2c(C(=O)C(=O)N3CCN(C(=O)c4ccccc4)CC3)c[nH]c12 [IVa]
*A* 5.4

*Q* Give me measured AUC, please, for this compound: COc1cnc(OC)c2c1c(C(=O)C(=O)N1CCN(C(=O)c3ccccc3)CC1)cn2COP(=O)(O)O [Iab]
*A* 3.3

* * *

- ASSAY EXPLANATION: IV and PO pharmacokinetic studies of prodrug salts (Iab, Ibb, Icb) in the rat, with historical parent data
- Type: in vivo, Sprague-Dawley rats
- CONDITION NOTES: in vivo, po, 5 mg/kg, read-out: AUCtot
MEASUREMENT NAME: AUC
Kindly report the value followed by its unit.

*Q* Give me measured AUC, please, for this compound: O=C(C(=O)N1CCN(C(=O)c2ccccc2)CC1)c1c[nH]c2c(-n3ccnn3)ncc(F)c12 [IVb]
*A* 86 µM·h

* * *

Entries and their half-life at 10 μM
- ASSAY EXPLANATION: in vitro
- CONDITION NOTES: monkey, serum
State just the number; it will be interpreted in h.

*Q* Give me measured half-life at 10 μM, please, for this molecule: COc1cnc(OC)c2c1c(C(=O)C(=O)N1CCN(C(=O)c3ccccc3)CC1)cn2COP(=O)(O)O
*A* 6.08

Others:
*Q* Give me measured half-life at 10 μM, please, for this molecule: COc1cnc(-n2cnc(C)n2)c2c1c(C(=O)C(=O)N1CCN(C(=O)c3ccccc3)CC1)cn2COP(=O)(O)O
*A* 0.5

* * *

- ASSAY EXPLANATION: IV and oral rat PK (MAP) studies A, B, C of phosphate prodrugs and parent studies A1, B1, C1
- Type: in vivo, Sprague-Dawley rats
- CONDITION NOTES: male, Sprague-Dawley, rat, in vivo, 1 mg/kg; rats, prodrug IV equivalent to 1 mpk of parent; read-out: CL i.v.
MEASUREMENT NAME: clearance (mL/min/kg)
State just the number; it will be interpreted in mL/min/kg.

*Q* Give me measured clearance, please, for this compound: O=C(C(=O)N1CCN(C(=O)c2ccccc2)CC1)c1cn(COP(=O)([O-])[O-])c2c(-n3ccnn3)ncc(F)c12.[Na+].[Na+]
*A* 46

* * *

- ASSAY EXPLANATION: IV and PO pharmacokinetic studies of prodrug salts (Iab, Ibb, Icb) in the dog, with historical parent data
- Type: in vivo, beagle dogs
- CONDITION NOTES: male, beagle, plasma, po, 6.05 mg/kg, read-out: Tmax
MEASUREMENT NAME: Tmax
Kindly report the value followed by its unit.

*Q* Give me measured Tmax, please, for this compound: COc1cnc(-n2cnc(C)n2)c2[nH]cc(C(=O)C(=O)N3CCN(C(=O)c4ccccc4)CC3)c12
*A* 34.8 min

* * *

- ASSAY EXPLANATION: Single-dose toxicokinetic and tolerability study of prodrugs in dogs
- Type: in vivo, dog
- CONDITION NOTES: female, dog, plasma, oral, Table 14: 180 (90 BID) mg/kg; Dogs #3201, #3202; read-out: C24 h
MEASUREMENT NAME: concentration at 24 h

*Q* Give me measured concentration at 24 h, please, for this compound: COc1ncc(OC)c2c(C(=O)C(=O)N3CCN(C(=O)c4ccccc4)CC3)c[nH]c12 [IVa]
*A* 34 µM

* * *

- ASSAY EXPLANATION: Single dose study of Compound IVa in healthy human volunteers (capsule/solution, fasted/fed; first-in-human)
- Type: in vivo
- CONDITION NOTES: human, plasma, oral, 800 mg, Fed, n = 6
MEASUREMENT NAME: Cmax (µM)
State just the number; it will be interpreted in µM.

*Q* Give me measured Cmax, please, for this molecule: COc1ncc(OC)c2c(C(=O)C(=O)N3CCN(C(=O)c4ccccc4)CC3)c[nH]c12
*A* 9.8

* * *

- ASSAY EXPLANATION: 2-week oral dose rat toxicology / TK study F
- Assay type: in vivo
- CONDITION NOTES: rat, plasma; rats PO 15 mg/kg (soln), historical; read-out: Mean AUC0-24 hr
MEASUREMENT NAME: AUC(0-t) (µM·h)
State just the number; it will be interpreted in µM·h.

*Q* Give me measured AUC(0-t), please, for this compound: COc1cnc(-n2cnc(C)n2)c2[nH]cc(C(=O)C(=O)N3CCN(C(=O)c4ccccc4)CC3)c12 [IVc]
*A* 418

* * *

Entries and their Tmax
- ASSAY EXPLANATION: IV and PO pharmacokinetic studies of prodrug salts (Iab, Ibb, Icb) in the monkey, with historical parent data
- Type: in vivo, cynomolgus monkeys
- CONDITION NOTES: cynomolgus monkey, plasma; monkey, historical parent, PO 5 mg/kg; read-out: Tmax (hr), PO
State just the number; it will be interpreted in h.

Example entries and their recorded answers appear below.
*Q* Give me measured Tmax, please, for this molecule: COc1ncc(OC)c2c(C(=O)C(=O)N3CCN(C(=O)c4ccccc4)CC3)c[nH]c12 [IVa]
*A* 2.7

*Q* Give me measured Tmax, please, for this molecule: O=C(C(=O)N1CCN(C(=O)c2ccccc2)CC1)c1c[nH]c2c(-n3ccnn3)ncc(F)c12 [IVb]
*A* 2.5

For the next question, use this molecule.
*Q* Give me measured Tmax, please, for this molecule: COc1cnc(-n2cnc(C)n2)c2[nH]cc(C(=O)C(=O)N3CCN(C(=O)c4ccccc4)CC3)c12 [IVc]
*A* 2.3

* * *

- ASSAY EXPLANATION: IV and PO pharmacokinetic studies of prodrug salts (Iab, Ibb, Icb) in the dog, with historical parent data
- Format: in vivo, beagle dogs
- CONDITION NOTES: plasma, po, 5 mg/kg, read-out: Cmax
MEASUREMENT NAME: Cmax (µM)
State just the number; it will be interpreted in µM.

*Q* Give me measured Cmax, please, for this compound: O=C(C(=O)N1CCN(C(=O)c2ccccc2)CC1)c1c[nH]c2c(-n3ccnn3)ncc(F)c12
*A* 7.7

Others:
*Q* Give me measured Cmax, please, for this compound: COc1cnc(-n2cnc(C)n2)c2[nH]cc(C(=O)C(=O)N3CCN(C(=O)c4ccccc4)CC3)c12
*A* 9.6

* * *

- ASSAY EXPLANATION: Single-dose toxicokinetic and tolerability study of prodrugs in dogs
- Assay type: in vivo, dog
- CONDITION NOTES: female, dog, plasma, oral, dogs, 1 hour post dose, Iab 90-240 mg/kg phase; read-out: prodrug detected in plasma
MEASUREMENT NAME: concentration at 1 h

*Q* Give me measured concentration at 1 h, please, for this molecule: COc1cnc(OC)c2c1c(C(=O)C(=O)N1CCN(C(=O)c3ccccc3)CC1)cn2COP(=O)(O)O
*A* 0.005 to 0.049 µM

* * *

- ASSAY EXPLANATION: Single-dose toxicokinetic and tolerability study of prodrugs in dogs
- Type: in vivo, dog
- CONDITION NOTES: female, dog, plasma, po, 250 mg/kg, dog 4201F, day 1, Icb 250 mg/kg (IVc equiv. 203) QD dry-filled capsules; emesis
MEASUREMENT NAME: AUC(0-inf)
Kindly report the value followed by its unit.

*Q* Give me measured AUC(0-inf), please, for this molecule: COc1cnc(-n2cnc(C)n2)c2[nH]cc(C(=O)C(=O)N3CCN(C(=O)c4ccccc4)CC3)c12
*A* 523 µM·h

* * *

- ASSAY EXPLANATION: Oral dose escalation study in rats (Study D of Ica; historical Study E of IVc)
- Assay type: in vivo
- CONDITION NOTES: Sprague-Dawley, rat, plasma, po, 75 mg/kg; read-out: Mean AUCtot
MEASUREMENT NAME: AUC (µM·h)
State just the number; it will be interpreted in µM·h.

*Q* Give me measured AUC, please, for this molecule: COc1cnc(-n2cnc(C)n2)c2[nH]cc(C(=O)C(=O)N3CCN(C(=O)c4ccccc4)CC3)c12 [IVc]
*A* 1070

* * *

- ASSAY EXPLANATION: Single dose study of Compound IVa in healthy human volunteers (capsule/solution, fasted/fed; first-in-human)
- Type: in vivo
- CONDITION NOTES: human, plasma, oral; 800 mg capsule with food, 8 hours post dose
MEASUREMENT NAME: concentration at 8 h (ng/mL)
State just the number; it will be interpreted in ng/mL.

*Q* Give me measured concentration at 8 h, please, for this molecule: COc1ncc(OC)c2c(C(=O)C(=O)N3CCN(C(=O)c4ccccc4)CC3)c[nH]c12
*A* 1000
